# assay protocol: AUC in Wistar rat at 1 mg/kg, iv
# Format: ADME, organism-based
# Set-up: dose 1 mg/kg, route intravenous
# assay setup: plasma
value type: AUC (ng·h/mL)

{"smiles repr": "Cc1ccc(C(=O)NC2CC2)cc1-c1ccn2c(C(C)(C)C)nnc2c1", "value units": "ng·h/mL", "AUC": 2120}

I. Cc1c(F)cc(C(=O)NC2CC2)cc1-c1c(F)cn2c(C(C)(C)C)nnc2c1F
II. Cc1c(F)cc(C(=O)NC2CC2)cc1-c1ccn2c(C(C)(C)C)nnc2c1
Problem: Given the entries I and II , determine which has the lower reported AUC. In your reply, give the label of the chosen option.
II
(II: 2670 ng·h/mL, I: 8010 ng·h/mL)
